meta.source: patent US7704971B2

target: Uracil reductase (dihydropyrimidine dehydrogenase, EC 1.3.1.2) (Bos taurus, UniProt Q28007); construct: purified from bovine liver; from tissue; host or cells: bovine liver; assay: Determination of uracil reductase inactivation; assay type: biochemical, bovine; conditions: 50 micromol inactivator; fractional activity vs time of incubation
Sequence (Q28007 with tags, fused parts or gaps): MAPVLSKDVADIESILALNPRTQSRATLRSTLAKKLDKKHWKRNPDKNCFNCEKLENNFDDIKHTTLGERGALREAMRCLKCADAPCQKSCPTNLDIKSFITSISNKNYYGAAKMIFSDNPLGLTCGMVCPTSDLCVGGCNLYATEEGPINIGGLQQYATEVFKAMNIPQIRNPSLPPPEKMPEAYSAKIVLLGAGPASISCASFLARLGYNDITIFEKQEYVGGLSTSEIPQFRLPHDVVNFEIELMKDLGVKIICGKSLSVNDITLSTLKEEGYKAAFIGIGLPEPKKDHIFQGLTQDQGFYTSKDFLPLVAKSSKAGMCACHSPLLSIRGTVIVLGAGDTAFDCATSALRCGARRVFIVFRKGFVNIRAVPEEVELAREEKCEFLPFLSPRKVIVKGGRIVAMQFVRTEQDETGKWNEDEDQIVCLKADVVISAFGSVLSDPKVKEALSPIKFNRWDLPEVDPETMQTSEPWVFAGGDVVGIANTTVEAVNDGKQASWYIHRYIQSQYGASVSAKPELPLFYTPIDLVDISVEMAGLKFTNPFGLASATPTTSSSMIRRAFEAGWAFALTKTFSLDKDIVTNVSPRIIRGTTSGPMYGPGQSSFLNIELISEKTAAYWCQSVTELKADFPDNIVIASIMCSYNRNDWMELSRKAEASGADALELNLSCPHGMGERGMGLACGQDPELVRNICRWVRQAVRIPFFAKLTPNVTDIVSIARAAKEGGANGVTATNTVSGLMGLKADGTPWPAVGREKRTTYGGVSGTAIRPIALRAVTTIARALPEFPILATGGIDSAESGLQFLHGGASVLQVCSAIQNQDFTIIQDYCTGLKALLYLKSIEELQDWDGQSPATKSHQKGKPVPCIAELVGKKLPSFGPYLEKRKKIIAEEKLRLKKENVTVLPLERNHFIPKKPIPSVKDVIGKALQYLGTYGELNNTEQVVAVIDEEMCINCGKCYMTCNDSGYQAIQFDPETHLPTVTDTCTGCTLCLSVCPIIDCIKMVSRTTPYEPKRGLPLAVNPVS
measured-attribute: relative first-order rate constants for inactivation of enzyme (parenthetical values)

{"compound-structure-string": "C=C(Cl)c1c[nH]c(=O)[nH]c1=O", "readout-value": "(5)"}
{"compound-structure-string": "C#Cc1c[nH]c(=O)[nH]c1=O", "readout-value": "(100)"}
{"compound-structure-string": "O=c1[nH]cc(I)c(=O)[nH]1", "readout-value": "(4)"}
{"compound-structure-string": "N#Cc1c[nH]c(=O)[nH]c1=O", "readout-value": "(14)"}
{"compound-structure-string": "CC#Cc1c[nH]c(=O)[nH]c1=O", "readout-value": "(8)"}

With those in mind, consider the next compound.
Consider the compound shown here: `O=c1[nH]cc(C#CBr)c(=O)[nH]1` What is its recorded relative first-order rate constants for inactivation of enzyme (parenthetical values)?
(8)
